Experiment: Metabolic (microsomal) stability assay, human liver microsomes (HLM)
Format: in vitro ADME
Details: 1 μM, predicted clearance as percent of liver blood flow
Hi there, I'd appreciate the recorded HLM QH [%] for every entry that follows.

Here's what some known entries look like.
1. C[C@H](Oc1cc(O[C@H]2CNC(C)(C)C2)nc(-c2noc3c2CCC[C@@]32CCCc3sc(N)c(C#N)c32)n1)[C@@H]1CCCN1C (single isomer, unassigned)
<24%
2. C[C@H](Oc1cc(Nc2ccncn2)nc(-c2noc3c2CCC[C@@]32CCCc3sc(N)c(C#N)c32)n1)[C@@H]1CCCN1C
<24%

Q: Please report the recorded HLM QH [%] for C[C@H](Oc1cc(Nc2ncco2)nc(-c2noc3c2CCC[C@@]32CCCc3sc(N)c(C#N)c32)n1)[C@@H]1CCCN1C .
Ans: <24%

----------
Assay: Plasma protein binding assay (PPB), equilibrium dialysis
Format: in vitro ADME
Details: bovine, 10% FCS in PBS, read-out: PPB 10% FCS (% fu)
Protocol: Binding of test compounds to plasma was determined using equilibrium dialysis (ED) and quantitative mass spectrometry interfaced with liquid chromatography (LC-MS). […] After incubation, protein was precipitated from aliquots of each chamber and the concentration of test compound in the supernatant of the plasma-containing compartment (cserum) and of the buffer-containing compartment (cbuffer) was determined by LC-MS. […]
So basically, if fraction unbound comes in under 0.3 it's true, and if it's 0.3 or more it's false.

Answered examples (5):
1) C[C@H](Oc1cc(N(C)CCN(C)C)nc(-c2noc3c2CCC[C@@]32CCCc3sc(N)c(C#N)c32)n1)[C@@H]1CCCN1C
false
2) C[C@H](Oc1cc(Nc2ccccn2)nc(-c2onc3c2CCC[C@@]32CCCc3sc(N)c(C#N)c32)n1)[C@@H]1CCCN1C
false
3) C[C@H](Oc1cc(O[C@@H]2CNC2(C)C)nc(-c2noc3c2CCC[C@@]32CCCc3sc(N)c(C#N)c32)n1)[C@@H]1C[C@@H](F)CN1C
false
4) C[C@H](Oc1cc(Oc2ccon2)nc(-c2noc3c2CCC[C@@]32CCCc3sc(N)c(C#N)c32)n1)[C@@H]1CCCN1C
true
5) C[C@H](Oc1cc(Oc2nccs2)nc(-c2onc3c2CCC[C@@]32CCCc3sc(N)c(C#N)c32)n1)[C@@H]1CCCN1C
true

Turning now to a further molecule:
Q: Given C[C@H](Oc1cc(Nc2nccs2)nc(-c2noc3c2CCC[C@@]32CCCc3sc(N)c(C#N)c32)n1)[C@@H]1CCCN1C , is recorded fraction unbound strictly lower than 0.3?
Ans: true

----------
Experiment: Metabolic (microsomal) stability assay, human liver microsomes (HLM)
Format: in vitro ADME
Conditions: 1 μM, predicted clearance as percent of liver blood flow
Hi there, I'd appreciate the recorded HLM QH [%] for every entry that follows.
Numbers only, in %.

Need HLM QH [%] for each of these compounds.
1. C[C@H](Oc1cc(OCC2(N(C)C)COC2)nc(-c2noc3c2CCC[C@@]32CCCc3sc(N)c(C#N)c32)n1)[C@@H]1CCCN1C [II-22]
2. C[C@H](Oc1cc(Oc2ccon2)nc(-c2noc3c2CCC[C@@]32CCCc3sc(N)c(C#N)c32)n1)[C@@H]1CCCN1C [II-3]
3. C[C@H](Oc1cc(NCC2COC2)nc(-c2noc3c2CCC[C@@]32CCCc3sc(N)c(C#N)c32)n1)[C@@H]1CCCN1C [II-11]
4. CO[C@@H]1C[C@@H]([C@H](C)Oc2cc(O[C@@H]3CNC3(C)C)nc(-c3noc4c3CCC[C@@]43CCCc4sc(N)c(C#N)c43)n2)N(C)C1 [II-30]
5. C[C@H](Oc1cc(O[C@@H]2CNC[C@@H]2F)nc(-c2noc3c2CCC[C@@]32CCCc3sc(N)c(C#N)c32)n1)[C@@H]1CCCN1C [II-29]
6. C[C@H](Oc1cc(OCC2(N(C)C)COC2)nc(-c2onc3c2CCC[C@@]32CCCc3sc(N)c(C#N)c32)n1)[C@@H]1CCCN1C [Example I-8]

Ans:
1. 53
2. 70
3. 36
4. 37
5. 28
6. 30

Need HLM QH [%] for each of these compounds.
1. C[C@H](Oc1cc(Oc2cccnc2)nc(-c2onc3c2CCC[C@@]32CCCc3sc(N)c(C#N)c32)n1)[C@@H]1CCCN1C [Example I-2]
2. C[C@H](Oc1cc(Oc2cnccn2)nc(-c2noc3c2CCC[C@@]32CCCc3sc(N)c(C#N)c32)n1)[C@@H]1CCCN1C [II-7]

Ans:
[70, 72]

----------
Hi there, I'd appreciate the recorded IC50 for every entry that follows.
Molecular target: KRAS (G12C)::SOS1 (Homo sapiens, UniProt P01116, C118S/C51S/C80L/G12C)
Construct: KRAS (G12C) 1-169, N-terminal 6His-tag for purification, cleaved off; 6His-tag (N, cleaved yes)
Sequence (P01116 1-169 isoform P01116-2 G12C/C51S/C80L/C118S): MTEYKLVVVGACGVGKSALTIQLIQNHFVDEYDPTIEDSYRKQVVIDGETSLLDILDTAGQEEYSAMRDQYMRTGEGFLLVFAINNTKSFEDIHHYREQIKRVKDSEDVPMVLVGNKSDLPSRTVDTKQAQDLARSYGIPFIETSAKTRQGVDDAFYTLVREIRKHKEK
Assay: KRAS::SOS1 AlphaScreen binding assay, KRAS G12C
Conditions: read-out: KRASG12C IC50
Numbers only, in nM.

Here's what some known entries look like.
1) C[C@H](Oc1cc(O[C@@H]2CNC[C@@H]2F)nc(-c2noc3c2CCC[C@@]32CCCc3sc(N)c(C#N)c32)n1)[C@@H]1CCCN1C [II-29]
2
2) C[C@H](Oc1cc(O[C@H]2CNC(C)(C)C2)nc(-c2noc3c2CCC[C@@]32CCCc3sc(N)c(C#N)c32)n1)[C@@H]1CCCN1C (single isomer, unassigned) [II-8]
2
3) C[C@H](Oc1cc(OCC2(N(C)C)COC2)nc(-c2onc3c2CCC[C@@]32CCCc3sc(N)c(C#N)c32)n1)[C@@H]1CCCN1C [Example I-8]
2

Need IC50 for each of these compounds.
1. C[C@H](Oc1cc(Nc2ncco2)nc(-c2noc3c2CCC[C@@]32CCCc3sc(N)c(C#N)c32)n1)[C@@H]1CCCN1C [II-13]
2. C[C@H](Oc1cc(Oc2nccs2)nc(-c2noc3c2CCC[C@@]32CCCc3sc(N)c(C#N)c32)n1)[C@@H]1CCCN1C [II-2]
3. C[C@H]1CN(C)CCCN1c1cc(O[C@@H]2CNC2(C)C)nc(-c2noc3c2CCC[C@@]32CCCc3sc(N)c(C#N)c32)n1 [II-28]
4. COc1c(OCC2(N(C)C)COC2)nc(-c2noc3c2CCC[C@@]32CCCc3sc(N)c(C#N)c32)nc1O[C@@H](C)[C@@H]1CCCN1C [II-25]
5. C[C@H](Oc1cc(Sc2ncccn2)nc(-c2onc3c2CCC[C@@]32CCCc3sc(N)c(C#N)c32)n1)[C@@H]1CCCN1C [Example I-7]

Ans:
1: 2; 2: 2; 3: 6; 4: 2; 5: 5

Need IC50 for each of these compounds.
1. COCCOc1cc(O[C@@H](C)[C@@H]2CCCN2C)nc(-c2noc3c2CCC[C@@]32CCCc3sc(N)c(C#N)c32)n1 [II-5]
2. C[C@H](Oc1cc(Nc2ncccn2)nc(-c2noc3c2CCC[C@@]32CCCc3sc(N)c(C#N)c32)n1)[C@@H]1CCCN1C [II-17]
3. C[C@H](Oc1cc(Oc2cncnc2)nc(-c2onc3c2CCC[C@@]32CCCc3sc(N)c(C#N)c32)n1)[C@@H]1CCCN1C [Example I-3]

Ans:
1: 2; 2: 2; 3: 1
